test: Cytotoxicity in human HepG2.2.15 cells assessed as reduction in cell viability incubated for 8 days by MTT assay; assay type: cell-based, HepG2 2.2.15
Provide the reported CC50 at 192 h of each item.
Give bare numbers, in µM.

O=c1c(C2CC2)cc(-c2ccc(F)nc2F)nn1Cc1ccc(Cl)cc1 : 39.8

Now for another entry.
Entry under review: O=c1c2ccccc2c(-c2ccc(F)nc2F)nn1Cc1ccc(Cl)cc1 . Reported CC50 at 192 h?
36.7

----------
test: Ratio of drug level in liver to plasma of CD1 mouse at 20 mg/kg, po dosed as single administration measured after 8 hrs; format: ADME, organism-based
attribute.measured: Kp at 8 h
One number for each entry.

Can you share its Kp at 8 h? I mean this compound: N#Cc1ccc(Cn2nc(-c3cc(Cl)c(NCC(O)CO)nc3F)c3ccccc3c2=O)cc1 (stereo unspecified)
4
